- PROCEDURE_DETAILS: Half life in simulated gastric fluid at 20 uM by LC-MS/MS analysis
- Type: ADME

GIVEN_SMILES	half-life at 20 µM
CC(=O)NCCCC[C@H](NC(=O)C(C)(C)NC(=O)[C@H](Cc1ccc2ccccc2c1)NC(=O)[C@H](Cc1ccc(OCCN)cc1)NC(=O)[C@@H](NC(=O)[C@H](CCC(N)=O)NC(=O)[C@H](Cc1c[nH]c2ccccc12)NC(=O)[C@@H](NC(=O)[C@H](CCC(N)=O)NC(=O)[C@@H](NC(C)=O)C(C)(C)S)[C@@H](C)O)C(C)(C)S)C(=O)N[C@@H](CC(N)=O)C(=O)NCCC(N)=O	> 6 h
CC(=O)NCCCC[C@H](NC(=O)C1(NC(=O)[C@H](Cc2ccc3ccccc3c2)NC(=O)[C@H](Cc2ccc(C(N)=O)cc2)NC(=O)[C@@H](NC(=O)[C@H](CCC(N)=O)NC(=O)[C@H](Cc2c[nH]c3ccccc23)NC(=O)[C@@H](NC(=O)[C@H](CC(N)=O)NC(=O)[C@@H](NC(C)=O)C(C)(C)S)[C@@H](C)O)C(C)(C)S)CCCCC1)C(=O)N[C@@H](CC(N)=O)C(=O)N[C@@H](CC(N)=O)C(N)=O	> 6 h
CC(=O)NCCCC[C@](C)(NC(=O)[C@H](Cc1ccc2ccccc2c1)NC(=O)[C@H](Cc1ccc(OCCNC(C)=O)cc1)NC(=O)[C@@H](NC(=O)[C@H](CCC(N)=O)NC(=O)[C@H](Cc1c[nH]c2ccccc12)NC(=O)[C@@H](NC(=O)[C@H](CCC(N)=O)NC(=O)[C@@H](NC(C)=O)C(C)(C)S)[C@@H](C)O)C(C)(C)S)C(=O)N[C@@H](CCC(=O)O)C(=O)N[C@@H](CC(N)=O)C(=O)NCC(N)=O	> 6 h

###

Documented IC50 across a set of compounds
- PROCEDURE_DETAILS: Inhibition of interleukin-23 binding to rat interleukin-23 receptor incubated for 2 hrs by competitive binding ELISA

GIVEN_SMILES	IC50
CC(=O)N[C@@H](CCC(=O)O)C(=O)N[C@H]1CCSC[C@@H](C(=O)N[C@@H](Cc2ccc(OCCN)cc2)C(=O)N[C@@H](Cc2ccc3ccccc3c2)C(=O)N[C@@](C)(CCCCN)C(=O)N[C@@H](CCC(=O)O)C(=O)N[C@@H](CC(N)=O)C(=O)N[C@@H](CC(N)=O)C(N)=O)NC(=O)[C@H](CCC(N)=O)NC(=O)[C@H](Cc2c[nH]c3ccccc23)NC(=O)[C@H]([C@@H](C)O)NC(=O)[C@H](CCC(N)=O)NC1=O	< 10 nM
CC(=O)NCCCC[C@H](NC(=O)[C@](C)(CCCN)NC(=O)[C@H](Cc1c[nH]c2ccccc12)NC(=O)[C@H](Cc1ccc(O)cc1)NC(=O)[C@@H]1CSCC[C@H](NC(C)=O)C(=O)N[C@@H](CCC(N)=O)C(=O)N[C@@H]([C@@H](C)O)C(=O)N[C@@H](Cc2c[nH]c3ccccc23)C(=O)N[C@@H](CCC(N)=O)C(=O)N1)C(=O)N[C@@H](CC(N)=O)C(=O)NCC(N)=O	25 to 100 nM
CC(=O)N[C@H](C(=O)N[C@@H](CCC(N)=O)C(=O)N[C@H](C(=O)N[C@@H](Cc1c[nH]c2ccccc12)C(=O)N[C@@H](CCC(N)=O)C(=O)N[C@H](C(=O)N[C@@H](Cc1ccc(OCCN)cc1)C(=O)N[C@@H](Cc1ccc2ccccc2c1)C(=O)N[C@@](C)(CC(C)C)C(=O)N[C@@H](CCC(N)=O)C(=O)N[C@@H](CC(N)=O)C(=O)N[C@@H](CC(N)=O)C(N)=O)C(C)(C)S)[C@@H](C)O)C(C)(C)S	< 10 nM
COc1ccc(C[C@H](NC(=O)[C@@H]2CSCC[C@H](NC(C)=O)C(=O)N[C@@H](CCC(N)=O)C(=O)N[C@@H]([C@@H](C)O)C(=O)N[C@@H](Cc3c[nH]c4ccccc34)C(=O)N[C@@H](CCC(N)=O)C(=O)N2)C(=O)N[C@@H](Cc2ccc3ccccc3c2)C(=O)N[C@@](C)(CCCCN)C(=O)N[C@@H](CCCCNC(C)=O)C(=O)N[C@@H](CC(N)=O)C(=O)NCC(N)=O)cc1	10 to 25 nM
COc1ccc(C[C@H](NC(=O)[C@@H]2CSCC[C@H](NC(C)=O)C(=O)N[C@@H](CCC(N)=O)C(=O)N[C@@H]([C@@H](C)O)C(=O)N[C@@H](Cc3c[nH]c4ccccc34)C(=O)N[C@@H](CCC(N)=O)C(=O)N2)C(=O)N[C@@H](Cc2cccc3ccccc23)C(=O)N[C@@](C)(CCCCN)C(=O)N[C@@H](CCCCNC(C)=O)C(=O)N[C@@H](CC(N)=O)C(=O)NCC(N)=O)cc1	25 to 100 nM

Origin of measurements: ChEMBL document CHEMBL4417631
